Would you kindly list IC50 for each of these compounds?
SUBJECT_OF_TEST: SIK2 (Homo sapiens)
Construct: purchased ThermoFisher Scientific PV4792
Sequence (Q9H0K1 whole entry): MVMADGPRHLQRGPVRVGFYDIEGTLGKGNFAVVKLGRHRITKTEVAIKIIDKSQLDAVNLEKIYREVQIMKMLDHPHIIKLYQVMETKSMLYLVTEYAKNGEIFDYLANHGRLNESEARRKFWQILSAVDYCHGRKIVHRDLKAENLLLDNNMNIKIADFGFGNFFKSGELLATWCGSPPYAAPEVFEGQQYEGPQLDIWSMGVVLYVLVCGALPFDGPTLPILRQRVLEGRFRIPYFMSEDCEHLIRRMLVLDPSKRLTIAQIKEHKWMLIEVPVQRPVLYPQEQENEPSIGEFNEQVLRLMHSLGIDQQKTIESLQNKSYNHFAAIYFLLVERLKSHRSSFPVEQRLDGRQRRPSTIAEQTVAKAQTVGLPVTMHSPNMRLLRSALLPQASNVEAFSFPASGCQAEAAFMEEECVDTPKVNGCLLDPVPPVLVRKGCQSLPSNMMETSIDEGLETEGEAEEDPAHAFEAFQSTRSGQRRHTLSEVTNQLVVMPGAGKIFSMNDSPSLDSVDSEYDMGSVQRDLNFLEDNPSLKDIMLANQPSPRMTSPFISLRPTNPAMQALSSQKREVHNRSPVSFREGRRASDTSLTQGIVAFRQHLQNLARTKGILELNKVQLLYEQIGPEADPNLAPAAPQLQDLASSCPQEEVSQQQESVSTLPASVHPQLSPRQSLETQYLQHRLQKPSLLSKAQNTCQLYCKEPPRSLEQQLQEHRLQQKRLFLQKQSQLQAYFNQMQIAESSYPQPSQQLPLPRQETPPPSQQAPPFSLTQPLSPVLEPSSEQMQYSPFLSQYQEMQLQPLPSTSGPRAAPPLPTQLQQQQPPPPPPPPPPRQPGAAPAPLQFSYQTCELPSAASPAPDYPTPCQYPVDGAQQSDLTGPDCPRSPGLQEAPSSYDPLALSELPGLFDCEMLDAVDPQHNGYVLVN
ASSAY_TEXT: biochemical
STUDY_CONDITIONS: ADP-Glo SIK kinase assay

Entry COc1cc(-c2cnc3cc(-c4cnn(C)c4)ccn23)cc(OCCO)c1C(=O)NC1CC1 — recorded IC50 = 0.01 to 10 nM

Entry COc1cc(-c2cnc3cc(-c4cnn(C)c4)ccn23)cc2c1C(=O)N(CC(F)(F)F)CC2 — recorded IC50 = 0.01 to 10 nM

Entry COc1cc(-c2cnc3cc(-c4cnn(C5CN(CCC#N)C5)c4)ccn23)cc(OC)c1C(=O)NCC(F)(F)F — recorded IC50 = 0.01 to 10 nM

Entry COc1cc(-c2cnc3cc(-c4cn[nH]c4)ccn23)cc(OC(F)F)c1C(=O)NC1CC1 — recorded IC50 = 0.01 to 10 nM

Entry COc1cc(-c2cnc3cc(-c4cnnc(C)c4)ccn23)cc(OC(F)F)c1C(=O)NC1CC1 — recorded IC50 = 0.01 to 10 nM

Entry COc1cc(-c2cnc3cc(-c4ccc(C)nn4)ccn23)cc(OC)c1C(=O)NCC(F)(F)F — recorded IC50 = 0.01 to 10 nM

Entry COc1cc(-c2cnc3cc(-c4cnn(C5CN(CC#N)C5)c4)ccn23)cc(OC)c1C(=O)NCC(F)(F)F — recorded IC50 = 0.01 to 10 nM

Entry COc1cc(-c2cnc3cc(-c4cnccc4C(N)=O)ccn23)cc(OC)c1C(=O)NCC(F)(F)F — recorded IC50 = > 500 nM

Entry COc1cc(-n2cnc3cc(-c4cnn(C)c4)ccc32)cc(OC)c1C(=O)NC(C)(C)C — recorded IC50 = > 500 nM

Entry COc1cc(-n2cnc3cc(-c4cn[nH]c4)ccc32)cc(OC(F)F)c1C(=O)NC1CC1 — recorded IC50 = 0.01 to 10 nM

Entry COc1cc(-c2cnc3cc(-c4cncn4C)ccn23)cc(OC(F)F)c1C(=O)NC1CC1 — recorded IC50 = 0.01 to 10 nM

Entry COc1cc(-c2cnc3cc(-c4cnn(C)c4)ccn23)cc(OC)c1C(=O)NCC(F)F — recorded IC50 = 0.01 to 10 nM

Entry COc1cc(-c2cnc3cc(-c4cnn(CC(=O)OCC5CCCO5)c4)ccn23)cc(OC)c1C(=O)NCC(F)(F)F (stereo not shown) — recorded IC50 = 0.01 to 10 nM

Entry CCN1Cc2cc(-n3cnc4cc(-c5cnn(C)c5)ccc43)cc(NCCO)c2C1=O — recorded IC50 = 100 to 500 nM

Entry CCOC(=O)C(C)n1cc(-c2ccn3c(-c4cc(OC)c(C(=O)NCC(F)(F)F)c(OC)c4)cnc3c2)cn1 (stereo not shown) — recorded IC50 = 0.01 to 10 nM

Entry COc1cc(-c2cnc3cc(-c4ccc(N5CCOCC5)nn4)ccn23)cc(OC(F)F)c1C(=O)NC1CC1 — recorded IC50 = 0.01 to 10 nM

###

SUBJECT_OF_TEST: SIK3 (Homo sapiens, UniProt Q9Y2K2)
Construct: purchased SignalChem S12-11G-100
Sequence (Q9Y2K2 whole entry): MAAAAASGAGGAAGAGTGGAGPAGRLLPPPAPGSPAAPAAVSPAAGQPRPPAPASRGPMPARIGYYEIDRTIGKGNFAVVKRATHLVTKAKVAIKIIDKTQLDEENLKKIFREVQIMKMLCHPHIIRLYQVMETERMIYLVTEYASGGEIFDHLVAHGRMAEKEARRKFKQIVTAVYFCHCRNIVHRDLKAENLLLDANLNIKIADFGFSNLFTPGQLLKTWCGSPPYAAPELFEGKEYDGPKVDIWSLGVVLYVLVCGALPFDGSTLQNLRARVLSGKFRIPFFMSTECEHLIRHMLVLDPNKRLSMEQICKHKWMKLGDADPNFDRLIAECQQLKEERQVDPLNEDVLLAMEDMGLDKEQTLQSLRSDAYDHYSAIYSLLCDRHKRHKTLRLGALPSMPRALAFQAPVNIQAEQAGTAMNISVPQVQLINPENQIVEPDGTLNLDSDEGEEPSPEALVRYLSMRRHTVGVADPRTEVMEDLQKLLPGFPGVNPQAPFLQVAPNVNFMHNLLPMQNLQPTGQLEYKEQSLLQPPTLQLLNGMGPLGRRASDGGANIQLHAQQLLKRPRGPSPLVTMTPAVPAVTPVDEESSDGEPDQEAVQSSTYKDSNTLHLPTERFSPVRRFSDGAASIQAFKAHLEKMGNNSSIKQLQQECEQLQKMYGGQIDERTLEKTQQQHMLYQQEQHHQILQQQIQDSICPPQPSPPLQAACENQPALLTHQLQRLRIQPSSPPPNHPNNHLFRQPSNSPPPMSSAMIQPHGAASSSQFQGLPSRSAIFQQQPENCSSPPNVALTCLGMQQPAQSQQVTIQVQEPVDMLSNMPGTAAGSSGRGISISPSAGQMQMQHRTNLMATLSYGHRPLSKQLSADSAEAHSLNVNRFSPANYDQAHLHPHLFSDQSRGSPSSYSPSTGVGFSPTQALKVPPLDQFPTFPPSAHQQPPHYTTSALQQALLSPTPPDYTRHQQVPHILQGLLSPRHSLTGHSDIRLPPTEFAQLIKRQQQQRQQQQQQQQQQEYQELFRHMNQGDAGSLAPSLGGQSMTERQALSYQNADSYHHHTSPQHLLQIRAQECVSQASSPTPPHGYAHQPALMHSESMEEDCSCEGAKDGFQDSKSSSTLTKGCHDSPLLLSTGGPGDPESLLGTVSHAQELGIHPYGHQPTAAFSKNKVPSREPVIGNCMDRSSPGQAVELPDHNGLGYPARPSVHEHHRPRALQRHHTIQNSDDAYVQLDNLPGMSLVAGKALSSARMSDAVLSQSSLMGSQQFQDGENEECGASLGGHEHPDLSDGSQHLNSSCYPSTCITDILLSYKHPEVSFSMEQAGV
ASSAY_TEXT: biochemical
STUDY_CONDITIONS: 33P radioactive SIK kinase assay, AMARA peptide, 15 μM ATP
QUANTITY_MEASURED: IC50

Entry COC(=O)C(C)n1cc(-c2ccn3c(-c4cc(OC)c(C(=O)NCC(F)(F)F)c(OC)c4)cnc3c2)cn1 (stereo not shown) — recorded IC50 = 0.01 to 10 nM

###

SUBJECT_OF_TEST: SIK1 (Homo sapiens)
Construct: purchased Carna Biosciences 02-131
Sequence (P57059 whole entry): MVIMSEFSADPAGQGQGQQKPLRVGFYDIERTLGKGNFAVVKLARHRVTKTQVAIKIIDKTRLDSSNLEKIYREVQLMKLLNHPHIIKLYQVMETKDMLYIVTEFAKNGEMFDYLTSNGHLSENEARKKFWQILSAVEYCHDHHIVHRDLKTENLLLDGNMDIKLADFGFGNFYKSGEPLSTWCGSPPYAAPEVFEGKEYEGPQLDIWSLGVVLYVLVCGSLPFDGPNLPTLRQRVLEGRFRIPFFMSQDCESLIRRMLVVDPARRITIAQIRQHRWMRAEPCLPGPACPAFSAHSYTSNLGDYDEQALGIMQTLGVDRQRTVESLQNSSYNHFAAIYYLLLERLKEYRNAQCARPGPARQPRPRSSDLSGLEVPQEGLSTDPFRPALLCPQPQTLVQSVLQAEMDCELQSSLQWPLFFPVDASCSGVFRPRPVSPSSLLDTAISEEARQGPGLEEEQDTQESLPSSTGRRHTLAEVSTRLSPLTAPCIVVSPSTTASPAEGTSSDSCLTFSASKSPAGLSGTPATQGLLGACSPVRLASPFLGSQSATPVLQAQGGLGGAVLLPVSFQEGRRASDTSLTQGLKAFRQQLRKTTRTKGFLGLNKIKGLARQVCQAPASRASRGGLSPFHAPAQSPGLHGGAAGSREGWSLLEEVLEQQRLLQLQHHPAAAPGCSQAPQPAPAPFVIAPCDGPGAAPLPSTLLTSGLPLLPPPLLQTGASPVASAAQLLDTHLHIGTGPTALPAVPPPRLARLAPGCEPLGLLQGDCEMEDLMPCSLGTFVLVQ
ASSAY_TEXT: biochemical
STUDY_CONDITIONS: 33P radioactive SIK kinase assay, AMARA peptide, 10 μM ATP; read-out: SIK1 IC50
QUANTITY_MEASURED: IC50

Lab note: compound COc1cc(-c2cnc3cc(-c4cnn(C(C)C(=O)O)c4)ccn23)cc(OC)c1C(=O)NCC(F)(F)F (centres unmarked) [Cpd 254] tested on SIK1 (Homo sapiens); recorded IC50 was 0.01 to 10 nM

Lab note: compound COc1cc(-c2cnc3cc(-c4cnn(C)c4)ccn23)cc2c1C(=O)N(CC(F)(F)F)C2 [compound 261] tested on SIK1 (Homo sapiens); recorded IC50 was 10 to 100 nM

Lab note: compound CCNC(=O)c1c(OC)cc(-n2cnc3cc(-c4cn(C)nc4C)ccc32)cc1OC [compound 8] tested on SIK1 (Homo sapiens); recorded IC50 was 100 to 500 nM

Lab note: compound COc1cc(-n2cnc3cc(-c4cncn4C)ccc32)cc(OC)c1C(=O)NCC(F)(F)F [compound 135] tested on SIK1 (Homo sapiens); recorded IC50 was > 500 nM

Lab note: compound COc1cc(-c2cnc3cc(-c4cncnc4)ccn23)cc(OC)c1C(=O)NCC(F)(F)F [compound 242] tested on SIK1 (Homo sapiens); recorded IC50 was 100 to 500 nM

Lab note: compound COc1cc(-n2cnc3cc(-c4ccc(N5CCOCC5)nc4)ccc32)cc(OC)c1C(=O)NCC(F)(F)F [compound 32] tested on SIK1 (Homo sapiens); recorded IC50 was 10 to 100 nM

Lab note: compound COc1cc(-n2cnc3cc(-c4cnn(C(F)F)c4)ccc32)cc(OC)c1C(=O)NCC(F)(F)F [compound 97] tested on SIK1 (Homo sapiens); recorded IC50 was 10 to 100 nM

Lab note: compound COc1cc(-n2cnc3cc(-c4cnn(C)c4)ccc32)cc(OC)c1C(=O)N1CCC1CO (centres unmarked) [compound 193] tested on SIK1 (Homo sapiens); recorded IC50 was > 500 nM

###

SUBJECT_OF_TEST: SIK2 (Homo sapiens)
Construct: purchased ThermoFisher Scientific PV4792
ASSAY_TEXT: biochemical
STUDY_CONDITIONS: 33P radioactive SIK kinase assay, AMARA peptide, 10 μM ATP
pIC50: −log10 of the molar value.
QUANTITY_MEASURED: pIC50

Entry COc1cc(-n2cnc3cc(-c4cnn(C)c4)ccc32)cc(OC)c1C(=O)N1CC(O)C1 — recorded pIC50 = 6.30 to 7.00

Entry COc1cc(-n2cnc3cc(-c4nnc(C)o4)ccc32)cc(OC)c1C(=O)NCC(F)(F)F — recorded pIC50 = < 6.30

Entry CCn1cc(-c2ccc3c(c2)ncn3-c2cc(OC)c(C(=O)NC3C[C@H]3C)c(OC)c2)cn1 (some centres unmarked) — recorded pIC50 = 7.00 to 8.00

Entry COc1cc(-n2cnc3cc(-n4ccc(C)n4)ccc32)cc(OC)c1C(=O)NCC(F)(F)F — recorded pIC50 = 6.30 to 7.00

Entry COc1cc(-c2cnc3cc(-c4cccnc4OC)ccn23)cc(OC)c1C(=O)NCC(F)(F)F — recorded pIC50 = 7.00 to 8.00

Entry CCNC(=O)c1c(OC)cc(-n2cnc3cc(-c4cnn(C)c4)cnc32)cc1OC(F)F — recorded pIC50 = 7.00 to 8.00

Entry CCNC(=O)c1c(OC)cc(-n2cnc3cc(-c4cn(C)nc4C)ccc32)cc1OC — recorded pIC50 = 7.00 to 8.00

Entry CCNC(=O)c1c(OC)cc(-c2cnc3cc(-c4cc(C)no4)ccn23)cc1OC(F)F — recorded pIC50 = 8.00 to 11.00

###

SUBJECT_OF_TEST: SIK2 (Homo sapiens)
Construct: purchased ThermoFisher Scientific PV4792
ASSAY_TEXT: biochemical
STUDY_CONDITIONS: 33P radioactive SIK kinase assay, AMARA peptide, 10 μM ATP
pIC50: −log10 of the molar value.
QUANTITY_MEASURED: pIC50

Entry COc1cc(-c2cnc3cc(-c4cnn(C(C)C(=O)O)c4)ccn23)cc(OC)c1C(=O)NCC(F)(F)F (stereo not drawn) [Cpd 254] — recorded pIC50 = 8.00 to 11.00

Entry COc1cc(-n2cnc3cc(-c4cnn(C5CC5)c4)ccc32)cc(OC)c1C(=O)NCC(F)(F)F [compound 96] — recorded pIC50 = 8.00 to 11.00

Entry COc1cc(-n2cnc3cc(-c4cnn(C5CCN(C)CC5)c4)ccc32)cc(OC)c1C(=O)NCC(F)(F)F [Cpd 46] — recorded pIC50 = 8.00 to 11.00

Entry COCCn1cc(-c2ccc3c(c2)ncn3-c2cc(OC)c(C(=O)NCC(F)(F)F)c(OC)c2)cn1 [compound 84] — recorded pIC50 = 8.00 to 11.00

Entry COc1cc(-n2cnc3cc(-c4cnn(C)c4)ccc32)cc(OC)c1C(=O)N1CC(N2CCOCC2)C1 [compound 188] — recorded pIC50 = < 6.30

Entry COc1cc(-n2cnc3cc(-c4cnn(C)c4)ccc32)cc(OC)c1C(=O)N1CC(F)(F)C1 [compound 142] — recorded pIC50 = 7.00 to 8.00

Entry CCn1cc(-c2ccc3c(c2)ncn3-c2cc(OC)c(C(=O)NCCO)c(OC)c2)cn1 [compound 5] — recorded pIC50 = 7.00 to 8.00

Entry COc1cc(-c2cnc3cc(-c4cnn(CC(=O)OC(C)(C)C)c4)ccn23)cc(OC)c1C(=O)NCC(F)(F)F [Cpd 229] — recorded pIC50 = 8.00 to 11.00

Entry COc1cc(-c2cnc3cc(-c4cnn(C)c4)ccn23)cc(OC)c1C(=O)N1CCC(C#N)C1 (stereo not drawn) [compound 210] — recorded pIC50 = 7.00 to 8.00

Entry COc1cc(-c2cnc3cc(-c4cn(C)cn4)ccn23)cc(OC)c1C(=O)N[C@@H](C)C(F)(F)F [compound 216] — recorded pIC50 = 7.00 to 8.00

Entry COc1cc(-n2cnc3cc(-c4cnn(CC#N)c4)ccc32)cc(OC)c1C(=O)NCC(F)(F)F [compound 40] — recorded pIC50 = 8.00 to 11.00

Entry COc1ncc(-c2ccc3c(c2)ncn3-c2cc(OC)c(C(=O)NCC(F)(F)F)c(OC)c2)cn1 [compound 105] — recorded pIC50 = < 6.30

Entry CCNC(=O)c1c(OC)cc(-n2cnc3cc(-c4nnc(C)[nH]4)ccc32)cc1OC(F)F [compound 150] — recorded pIC50 = < 6.30

Entry COc1cc(-c2cnc3cc(-c4cc(C)no4)ccn23)cc(OC)c1C(=O)N[C@@H](C)C(F)(F)F [compound 224] — recorded pIC50 = 6.30 to 7.00

Entry COc1cc(-n2cnc3cc(-c4cnn(C)c4)ccc32)cc(OC)c1C(=O)NC(C)C [compound 115] — recorded pIC50 = 7.00 to 8.00
